Molecular target: T1, Human IL2Rγ extracellular domain expressed with a C-terminal myc-myc-hexahistidine tag (human)
T1 construct: also called hIL-2Rg-MMH; hIL-2RG-MMH
T1 chain: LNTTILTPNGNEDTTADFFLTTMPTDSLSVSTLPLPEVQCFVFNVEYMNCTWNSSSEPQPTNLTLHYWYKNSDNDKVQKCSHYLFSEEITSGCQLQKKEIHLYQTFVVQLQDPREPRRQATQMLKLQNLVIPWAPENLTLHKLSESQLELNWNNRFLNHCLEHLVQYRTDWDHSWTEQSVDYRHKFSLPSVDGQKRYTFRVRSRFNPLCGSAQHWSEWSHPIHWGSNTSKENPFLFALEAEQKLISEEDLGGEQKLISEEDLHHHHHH
Assay: SPR, captured mAb, 25C, dissociation pH 7.4
Recorded measurements of koff, one per entry
// return numeric value only (unit: s⁻¹, not printed)

Record excerpt, results attached:
H4H12863P (antibody, human IgG4 S228P, kappa, V domains shown, anti-IL2Rgamma mAb expressed with human IgG4 Fc) VH: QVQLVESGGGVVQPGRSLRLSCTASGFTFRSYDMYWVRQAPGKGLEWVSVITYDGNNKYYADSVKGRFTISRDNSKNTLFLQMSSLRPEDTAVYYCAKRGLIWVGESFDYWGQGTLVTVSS VL: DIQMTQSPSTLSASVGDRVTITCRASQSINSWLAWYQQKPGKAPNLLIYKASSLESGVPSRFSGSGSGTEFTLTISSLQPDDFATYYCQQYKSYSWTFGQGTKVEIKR : 0.000172
H4H12886P (antibody, human IgG4 S228P, kappa, V domains shown, anti-IL2Rgamma mAb expressed with human IgG4 Fc) VH: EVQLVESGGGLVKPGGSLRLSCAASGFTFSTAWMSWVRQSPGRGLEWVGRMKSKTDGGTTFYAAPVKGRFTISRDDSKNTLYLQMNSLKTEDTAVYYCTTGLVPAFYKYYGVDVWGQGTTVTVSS VL: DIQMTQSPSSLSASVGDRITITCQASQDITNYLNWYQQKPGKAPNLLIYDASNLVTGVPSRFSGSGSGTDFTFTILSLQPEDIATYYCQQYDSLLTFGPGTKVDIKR : 0.000155
H4H12890P (antibody, human IgG4 S228P, kappa, V domains shown, anti-IL2Rgamma mAb expressed with human IgG4 Fc) VH: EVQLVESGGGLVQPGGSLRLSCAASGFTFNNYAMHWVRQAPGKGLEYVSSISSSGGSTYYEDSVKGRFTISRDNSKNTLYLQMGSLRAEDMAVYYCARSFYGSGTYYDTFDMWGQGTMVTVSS VL: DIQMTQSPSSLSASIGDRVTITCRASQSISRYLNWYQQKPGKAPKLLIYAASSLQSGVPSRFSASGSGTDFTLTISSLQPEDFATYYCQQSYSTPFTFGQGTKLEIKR : 0.000192
H4H12899P (antibody, human IgG4 S228P, kappa, V domains shown, anti-IL2Rgamma mAb expressed with human IgG4 Fc) VH: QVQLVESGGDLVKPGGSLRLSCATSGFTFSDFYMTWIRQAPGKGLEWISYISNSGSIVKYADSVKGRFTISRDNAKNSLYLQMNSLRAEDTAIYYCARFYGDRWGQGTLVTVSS VL: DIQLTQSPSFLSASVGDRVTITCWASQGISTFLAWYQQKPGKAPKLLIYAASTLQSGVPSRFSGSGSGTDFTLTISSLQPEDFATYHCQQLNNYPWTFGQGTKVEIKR : 0.000174

Let us examine a further case.
Short answer for H4H12871P (antibody, human IgG4 S228P, kappa, V domains shown, anti-IL2Rgamma mAb expressed with human IgG4 Fc; also called REGN9434) VH: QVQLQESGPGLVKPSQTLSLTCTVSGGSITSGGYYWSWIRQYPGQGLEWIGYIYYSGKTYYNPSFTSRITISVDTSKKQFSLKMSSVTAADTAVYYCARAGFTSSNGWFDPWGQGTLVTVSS VL: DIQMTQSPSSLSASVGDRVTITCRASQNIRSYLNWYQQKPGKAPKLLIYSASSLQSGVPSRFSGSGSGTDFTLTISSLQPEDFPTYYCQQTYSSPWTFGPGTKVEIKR : koff was 0.000596
